target: Histone-lysine N-methyltransferase EHMT2 (Homo sapiens) (UniProt Q96KQ7); experiment: qHTS Assay for Inhibitors of Histone Lysine Methyltransferase G9a; conditions: G9a H3K9 monomethylation, AlphaScreen, 2 h; series mostly up to 59 µM; note: nearly all actives have a fitted effect of over 75% in size
Sequence (Q96KQ7 913-1193 limits assumed): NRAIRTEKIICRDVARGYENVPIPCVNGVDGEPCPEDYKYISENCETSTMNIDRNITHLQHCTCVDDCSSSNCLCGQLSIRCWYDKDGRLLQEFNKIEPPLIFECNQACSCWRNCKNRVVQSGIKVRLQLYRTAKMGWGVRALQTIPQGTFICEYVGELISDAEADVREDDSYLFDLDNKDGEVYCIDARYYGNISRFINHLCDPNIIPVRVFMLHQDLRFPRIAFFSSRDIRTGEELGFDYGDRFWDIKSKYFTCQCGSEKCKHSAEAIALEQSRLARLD
Screen size: about 350,000 compounds; about 31,000 (8.9%) were called active. About 15% were inconclusive and are not listed. Shown is part of a subset that was picked to be rich in actives.
measureName: outcome

Recorded outcome, per entry:
- smi: "CC(C)(C)c1ccc(C(=O)Nc2ccc3c(c2)CCCN3C(=O)c2cccs2)cc1"
  measureName: "outcome"
  readoutValue: "inactive"
- smi: "CCOc1ccc(-c2noc(CCC(=O)NC3CCCC3)n2)cc1OC"
  measureName: "outcome"
  readoutValue: "inactive"
- smi: "Nc1ccc(C(=O)NCc2ccccc2)cc1"
  measureName: "outcome"
  readoutValue: "inactive"
- smi: "CCOc1cc(-c2noc(CCCC(=O)NC3CCCCC3)n2)ccc1OC"
  measureName: "outcome"
  readoutValue: "inactive"

For the molecule COc1ccc(-c2nnc(SCC(=O)Nc3ccc(C(C)C)cc3)nc2-c2ccc(OC)c(OC)c2)cc1OC , what outcome is on record?
inactive
